Hey, just so you know, these numbers are from PubChem BioAssay AID686996.

target: Caspase-6 (Homo sapiens); assay: human caspase-6 inhibitors, primary screen, biochemical, VEID-R110 fluorescence, single point, set 2 (AID 686996); conditions: purified caspase-6, Z-VEID-R110 cleavage fluorescence; at 12.5 µM; hits give high values;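 also: 0% = median of neutral control wells and 100% = no fluorescence left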
The whole screen tested about 350,000 compounds, of which about 1,900 (0.54%) were called active. The entries come from a sample that favours actives as a whole.
Answer each item with its documented inhibition.

Form field inhibition, entry `C[C@H](CO)N1C[C@H](C)[C@H](CN(C)C(=O)NC2CCCCC2)Oc2ccc(NC(=O)CCCN(C)C)cc2CC1=O` : 1.62% (inactive)

Per the records, this compound ( `C[C@@H]1CN([C@H](C)CO)C(=O)c2cc(NC(=O)Cc3ccccc3)ccc2O[C@@H](C)CCCCO[C@H]1CN(C)C(=O)Cc1ccccc1` ) has inhibition equal to 1% (inactive)

Record `C[C@@H]1CN([C@@H](C)CO)C(=O)c2cc(NS(=O)(=O)c3ccc(Cl)cc3)ccc2O[C@H]1CN(C)S(=O)(=O)c1cn(C)cn1` . Reported inhibition: -0.705% (inactive)

Looking up `C=CCn1c(=S)[nH]c2scc(-c3ccco3)c2c1=O` , I found its inhibition recorded as 80.7% (active)

For reference, reported inhibition for `C[C@H]1CCCCO[C@H](CN(C)C(=O)Nc2ccccc2)[C@@H](C)CN([C@@H](C)CO)C(=O)c2cc(NC(=O)c3ccncc3)ccc2O1` stands at -0.544% (inactive)

Given item `CCC(=O)N1[C@H](C(=O)NC2CCC2)[C@@H](CO)[C@@H]2Cn3c(cccc3=O)[C@@H]21` , the value recorded as its inhibition is 0.371% (inactive)

get_value(item= `COc1ccc2c3c(n(C)c2c1)[C@H](CO)N(CC1CCCCC1)CC31CCN(Cc2nccs2)CC1` , readout=inhibition) returns -2.93% (inactive)

Memo: `CCO[C@@H]1OC(C(=O)N2CCOCC2)=C[C@H](C)[C@H]1CCCO` , reported inhibition: -0.276% (inactive)

compound CC=Cc1ccc2n(c1=O)C[C@@H]1[C@@H](CO)[C@H](C(=O)N(C)C)[C@H]2N1CCc1ccccc1 (mixture of isomers) , inhibition observed: -1.44% (inactive)

For this compound ( `COc1ccc(NC(=O)N[C@H]2CC[C@@H](CCNS(=O)(=O)c3cccc(Cl)c3)O[C@H]2CO)cc1` ), measured inhibition is -1.94% (inactive)

The compound `CCOc1cc(C(=O)O)ccc1OCCOc1ccccc1` showed inhibition equal to 35.6% (active)

Just so you know, measured inhibition for `CS(=O)(=O)c1ccc2c(c1)SC1=NC(=O)/C(=C/c3ccco3)C(=N)N12` came out at 56.4% (active)

Just so you know, measured inhibition for `Cc1ccccc1NC(=O)CN1C(=O)N/C(=C\c2cccn2-c2cccc(C(=O)O)c2)C1=O` came out at 63.2% (active)

Summary for this compound, `COCC#Cc1cnc2c(c1)C(=O)N([C@H](C)CO)C[C@H](C)[C@H](CN(C)C(=O)Nc1ccccc1OC)O2` : inhibition is 0.658% (inactive)

Noted for CC=Cc1ccc2n(c1=O)C[C@@H]1[C@@H](CO)[C@H](C(=O)NCCc3ccccc3)N(C(C)=O)[C@H]21 (mixture of isomers) : its inhibition reads 61.2% (active)

GET /value?item= `C[C@@H]1CN([C@H](C)CO)S(=O)(=O)c2ccc(C#C[C@@H](C)O)cc2O[C@H]1CN(C)C(=O)CC1CC1` &field=inhibition returns 0.478% (inactive)
